# System: ATP;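 further: ATP exposure 15 min at 22 °C before imaging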
# assay-procedure: switch fluorescence ratio, 500 uM ATP over buffer (Cy3 cluster intensity, sum of 5 cycles each) (fold (ratio)); higher = stronger signal-on switching upon ATP binding; sequences stand for … in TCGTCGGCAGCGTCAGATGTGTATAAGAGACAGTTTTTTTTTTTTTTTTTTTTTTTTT…TC
# condition-context: aptamer strand: ATP DNA aptamer (quencher-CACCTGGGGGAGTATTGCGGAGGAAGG + anchor), 100 nM annealed; ATP concentration: 500 uM
quantity-measured: switch fluorescence ratio

- sequence: "TCCTGTTCTG"
  quantity-measured: "switch fluorescence ratio"
  recorded-result: 1.02
- sequence: "GCATGATGGA"
  quantity-measured: "switch fluorescence ratio"
  recorded-result: 0.975
- sequence: "AGTATTGGAG"
  quantity-measured: "switch fluorescence ratio"
  recorded-result: 1
- sequence: "CGATACGATG"
  quantity-measured: "switch fluorescence ratio"
  recorded-result: 0.995
- sequence: "AGGGTCTGGG"
  quantity-measured: "switch fluorescence ratio"
  recorded-result: 0.993
- sequence: "AGAAAGAGGG"
  quantity-measured: "switch fluorescence ratio"
  recorded-result: 1
- sequence: "TGTGTCAATT"
  quantity-measured: "switch fluorescence ratio"
  recorded-result: 0.984
- sequence: "GCCCATAGGA"
  quantity-measured: "switch fluorescence ratio"
  recorded-result: 0.978
- sequence: "TAAAGGGTAA"
  quantity-measured: "switch fluorescence ratio"
  recorded-result: 0.989
- sequence: "TCAATGGGGA"
  quantity-measured: "switch fluorescence ratio"
  recorded-result: 0.998
- sequence: "AGTTAGGGTA"
  quantity-measured: "switch fluorescence ratio"
  recorded-result: 0.974
- sequence: "TAGTATAG"
  quantity-measured: "switch fluorescence ratio"
  recorded-result: 0.975
- sequence: "GGTTGAAAAA"
  quantity-measured: "switch fluorescence ratio"
  recorded-result: 0.985
- sequence: "GGGAGGGACC"
  quantity-measured: "switch fluorescence ratio"
  recorded-result: 1.01
- sequence: "TCGAGTAAAA"
  quantity-measured: "switch fluorescence ratio"
  recorded-result: 0.99
- sequence: "AATAGTTAGG"
  quantity-measured: "switch fluorescence ratio"
  recorded-result: 1.02
- sequence: "GTAATAGGGC"
  quantity-measured: "switch fluorescence ratio"
  recorded-result: 0.983
- sequence: "TATCTAATGC"
  quantity-measured: "switch fluorescence ratio"
  recorded-result: 1
- sequence: "AGATTGCTTG"
  quantity-measured: "switch fluorescence ratio"
  recorded-result: 0.977
- sequence: "TTCAGGGGGG"
  quantity-measured: "switch fluorescence ratio"
  recorded-result: 1.02
- sequence: "TGGGGACGGG"
  quantity-measured: "switch fluorescence ratio"
  recorded-result: 1
- sequence: "ATGTCATGGG"
  quantity-measured: "switch fluorescence ratio"
  recorded-result: 0.998
- sequence: "TGTGAATTCT"
  quantity-measured: "switch fluorescence ratio"
  recorded-result: 0.993
- sequence: "TGGGGGGTCC"
  quantity-measured: "switch fluorescence ratio"
  recorded-result: 1.01
- sequence: "GCGGCGGCAG"
  quantity-measured: "switch fluorescence ratio"
  recorded-result: 0.976
- sequence: "AGGGGGAGGG"
  quantity-measured: "switch fluorescence ratio"
  recorded-result: 1.01
- sequence: "ATGGGCTTCT"
  quantity-measured: "switch fluorescence ratio"
  recorded-result: 1.02
- sequence: "GTGGAAAGGG"
  quantity-measured: "switch fluorescence ratio"
  recorded-result: 1.01
- sequence: "ACTTTCATGG"
  quantity-measured: "switch fluorescence ratio"
  recorded-result: 1.01
- sequence: "AGGGGATAGC"
  quantity-measured: "switch fluorescence ratio"
  recorded-result: 1.01
- sequence: "TGCGTTTTTA"
  quantity-measured: "switch fluorescence ratio"
  recorded-result: 1
- sequence: "TTCTATGGTG"
  quantity-measured: "switch fluorescence ratio"
  recorded-result: 1
- sequence: "TAACAGGGGG"
  quantity-measured: "switch fluorescence ratio"
  recorded-result: 0.995
- sequence: "TTACATGGTA"
  quantity-measured: "switch fluorescence ratio"
  recorded-result: 0.977
- sequence: "AGAAGAAGGC"
  quantity-measured: "switch fluorescence ratio"
  recorded-result: 0.988
- sequence: "GAGGGGAGCT"
  quantity-measured: "switch fluorescence ratio"
  recorded-result: 1.01
- sequence: "GATCCGGGGG"
  quantity-measured: "switch fluorescence ratio"
  recorded-result: 0.988
- sequence: "ATGGTCGGTC"
  quantity-measured: "switch fluorescence ratio"
  recorded-result: 0.989
- sequence: "CGGTTTTTTC"
  quantity-measured: "switch fluorescence ratio"
  recorded-result: 1.03
- sequence: "TCTGGTGACG"
  quantity-measured: "switch fluorescence ratio"
  recorded-result: 1.04
- sequence: "GGGCAATCGG"
  quantity-measured: "switch fluorescence ratio"
  recorded-result: 1.75
- sequence: "GAGGGGAAAT"
  quantity-measured: "switch fluorescence ratio"
  recorded-result: 0.999
- sequence: "GGGTTGCCCT"
  quantity-measured: "switch fluorescence ratio"
  recorded-result: 0.982
- sequence: "TTAACGCGTT"
  quantity-measured: "switch fluorescence ratio"
  recorded-result: 1.01
- sequence: "GGGAATTTTA"
  quantity-measured: "switch fluorescence ratio"
  recorded-result: 1.01
- sequence: "CGGGGATGTC"
  quantity-measured: "switch fluorescence ratio"
  recorded-result: 1.05
- sequence: "GAATATACCG"
  quantity-measured: "switch fluorescence ratio"
  recorded-result: 1.03
- sequence: "AACGGTGCGG"
  quantity-measured: "switch fluorescence ratio"
  recorded-result: 1.01
- sequence: "TTTGTAGGGT"
  quantity-measured: "switch fluorescence ratio"
  recorded-result: 0.971
- sequence: "GAAGTAGAAA"
  quantity-measured: "switch fluorescence ratio"
  recorded-result: 0.996
- sequence: "TTCATTCATG"
  quantity-measured: "switch fluorescence ratio"
  recorded-result: 0.97
- sequence: "CGGGGATTTG"
  quantity-measured: "switch fluorescence ratio"
  recorded-result: 0.976
- sequence: "CATGGGGCGC"
  quantity-measured: "switch fluorescence ratio"
  recorded-result: 1.01
- sequence: "AGGGGGTGTC"
  quantity-measured: "switch fluorescence ratio"
  recorded-result: 1.08
- sequence: "TAGAGAAATA"
  quantity-measured: "switch fluorescence ratio"
  recorded-result: 1.01
- sequence: "TCAACTGGAT"
  quantity-measured: "switch fluorescence ratio"
  recorded-result: 0.95
- sequence: "GCAGCAGATG"
  quantity-measured: "switch fluorescence ratio"
  recorded-result: 1.08
- sequence: "ATGAGGCATT"
  quantity-measured: "switch fluorescence ratio"
  recorded-result: 1.04
- sequence: "TAGCGATTGT"
  quantity-measured: "switch fluorescence ratio"
  recorded-result: 1.02
- sequence: "TCGCGGAGGG"
  quantity-measured: "switch fluorescence ratio"
  recorded-result: 0.981
- sequence: "TGAGGAGGGA"
  quantity-measured: "switch fluorescence ratio"
  recorded-result: 0.987
- sequence: "TGTTGCGGAT"
  quantity-measured: "switch fluorescence ratio"
  recorded-result: 1.24
- sequence: "TCGGGGGGAT"
  quantity-measured: "switch fluorescence ratio"
  recorded-result: 1.21
- sequence: "AGTTGAATTT"
  quantity-measured: "switch fluorescence ratio"
  recorded-result: 0.989
- sequence: "TACGAAGTAG"
  quantity-measured: "switch fluorescence ratio"
  recorded-result: 0.993
- sequence: "AAAGGAGGGC"
  quantity-measured: "switch fluorescence ratio"
  recorded-result: 0.968
- sequence: "GATATATATC"
  quantity-measured: "switch fluorescence ratio"
  recorded-result: 0.99
- sequence: "TTTATCCGTC"
  quantity-measured: "switch fluorescence ratio"
  recorded-result: 0.96
- sequence: "ATATGAATAG"
  quantity-measured: "switch fluorescence ratio"
  recorded-result: 1.01
- sequence: "CGATTAGGGA"
  quantity-measured: "switch fluorescence ratio"
  recorded-result: 1
- sequence: "GGATGGATTG"
  quantity-measured: "switch fluorescence ratio"
  recorded-result: 1

====

# Test system: ATP;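 further: ATP exposure 15 min at 22 °C before imaging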
# assay-procedure: switch fluorescence ratio, 500 uM ATP over buffer (Cy3 cluster intensity, sum of 5 cycles each) (fold (ratio)); higher = stronger signal-on switching upon ATP binding; sequences stand for … in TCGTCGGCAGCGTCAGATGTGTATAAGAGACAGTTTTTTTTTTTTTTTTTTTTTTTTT…TC
# condition-context: aptamer strand: ATP DNA aptamer (quencher-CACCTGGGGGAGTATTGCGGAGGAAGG + anchor), 100 nM annealed; ATP concentration: 500 uM
Could you label it MET if measured switch fluorescence ratio is 1 or higher, and NOT MET otherwise?

- sequence: "GTGTTGGATG"
  test-system: "ATP"
  group-label: "NOT MET"
- sequence: "TCAGAAATAG"
  test-system: "ATP"
  group-label: "MET"
- sequence: "GAATGCCTGT"
  test-system: "ATP"
  group-label: "MET"
- sequence: "CTCGTCACTC"
  test-system: "ATP"
  group-label: "MET"
- sequence: "AGGTAGAAGA"
  test-system: "ATP"
  group-label: "NOT MET"
- sequence: "AAGGCCTTCG"
  test-system: "ATP"
  group-label: "MET"
- sequence: "AGCCCGGGCA"
  test-system: "ATP"
  group-label: "NOT MET"
- sequence: "CAGTGTGCAG"
  test-system: "ATP"
  group-label: "NOT MET"
